Reference for the values: patent US20220306765A1

studySystem: human CLDN18.2-mRFP Q47E (human)
Sequence (chain, as listed by the source Q47E Q47E limits assumed): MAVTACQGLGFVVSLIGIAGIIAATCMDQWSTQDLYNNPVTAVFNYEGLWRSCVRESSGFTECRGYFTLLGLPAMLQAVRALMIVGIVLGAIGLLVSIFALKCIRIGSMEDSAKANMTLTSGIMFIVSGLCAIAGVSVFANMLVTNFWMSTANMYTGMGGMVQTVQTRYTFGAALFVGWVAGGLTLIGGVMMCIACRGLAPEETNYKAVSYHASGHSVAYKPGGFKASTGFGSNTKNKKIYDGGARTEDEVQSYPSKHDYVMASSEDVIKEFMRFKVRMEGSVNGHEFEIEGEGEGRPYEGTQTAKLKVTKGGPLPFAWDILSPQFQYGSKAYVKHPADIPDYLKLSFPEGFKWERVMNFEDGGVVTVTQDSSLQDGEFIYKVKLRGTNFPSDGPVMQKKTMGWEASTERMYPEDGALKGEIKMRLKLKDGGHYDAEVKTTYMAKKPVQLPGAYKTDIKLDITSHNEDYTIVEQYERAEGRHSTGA
assayNotes: FACS, transfected HEK293, 10 µg/ml antibody;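 also: antibody binding read by flow cytometry with a FITC-labelled anti-human IgG secondary, gated on RFP-positive cells, each mutant signal expressed against wild-type CLDN18.2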
readoutType: binding percentage vs wild-type CLDN18.2 (%)

{"binder": "12E9-C (antibody, human IgG1, V domains shown, also called chimeric 12E9) VH: EFQLQQSGPELEKPGASVRISCKTSGYSFTGYNMNWVKQSNGESLEWIGNIDPYYGGTRYNQKFKGKATLTVDKSSSTAYMQLKSLTSEDSAVYYCARSYYGNAFDYWGQGTTLTVSS VL: DIVMTQSPSSLTVTAGEKVTMSCKSSQNLLNNGNQKNYLTWYQQKPGQPPKLLIYWASTRESGVPDRFTGSGSGTDFILTISSVQAEDLAVYYCQNDYSFPFTFGAGTKLELK", "quantityUnit": "%", "assayResult": 89.1}
{"binder": "18B10-C (antibody, human IgG1, V domains shown, also called chimeric 18B10) VH: EFQLQQSGPELEKPGASVRISCKTSGYSFTGYNMNWVKQSNGESLEWIGNIDPYYGGTSYNQKFKGKATLTVDKSSSTAYMQLKSLTSEDSAVYYCARMYHGNAFDYWGQGTTLTVSS VL: DIVMTQSPSSLTVTAGEKVTMSCKSSQSLLNSGNLKNYLTWYQQKPGQPPKLLIYWASTRKSGVPDRFTGSGSGTDFTLTLSSVQAEDLAVYYCQNDYSYPLTFGAGTKLELK", "quantityUnit": "%", "assayResult": 109}
